Origin of measurements: patent US20190218226A1

tested on: UACC-62; assay: NCI60 antiproliferative screen, melanoma UACC-62; format: cell-based, human; conditions: UACC-62, 48 h, sulforhodamine B; read-out: Cytotoxicity (GI50) melanoma UACC-62

[
  {
    "SMILES ENTRY": "COc1cc2c3c(n(CCCN4CCOCC4)c(=O)c2cc1OC(C)=O)-c1cc2c(cc1C3=O)OCO2",
    "RELATION QUALIFIER": "<",
    "GI50 / µM": 0.01
  },
  {
    "SMILES ENTRY": "COc1cc2c(=O)n(CCCN3CCOCC3)c3c(c2cc1OC(C)=O)C(=O)c1cc2c(cc1-3)OCO2",
    "RELATION QUALIFIER": "=",
    "GI50 / µM": 0.018
  },
  {
    "SMILES ENTRY": "COC(=O)CCC(=O)Oc1cc2c3c(n(CCCN4CCOCC4)c(=O)c2cc1OC)-c1cc2c(cc1C3=O)OCO2",
    "RELATION QUALIFIER": "<",
    "GI50 / µM": 0.01
  },
  {
    "SMILES ENTRY": "COc1cc2c3c(n(CCCN4CCOCC4)c(=O)c2cc1OS(=O)(=O)O)-c1cc2c(cc1C3=O)OCO2",
    "RELATION QUALIFIER": "=",
    "GI50 / µM": 0.263
  },
  {
    "SMILES ENTRY": "COC(=O)CCC(=O)Oc1cc2c(=O)n(CCCN3CCOCC3)c3c(c2cc1OC)C(=O)c1cc2c(cc1-3)OCO2",
    "RELATION QUALIFIER": "=",
    "GI50 / µM": 0.018
  },
  {
    "SMILES ENTRY": "COc1cc2c3c(n(CCCN4CCOCC4)c(=O)c2cc1OC(=O)c1ccccc1)-c1cc2c(cc1C3=O)OCO2",
    "RELATION QUALIFIER": "=",
    "GI50 / µM": 0.059
  },
  {
    "SMILES ENTRY": "COc1cc2c(=O)n(CCCN3CCOCC3)c3c(c2cc1OC(=O)c1ccccc1)C(=O)c1cc2c(cc1-3)OCO2",
    "RELATION QUALIFIER": "=",
    "GI50 / µM": 0.096
  }
]

* * *

test system: MCF-7; assay: NCI60 antiproliferative screen, breast MCF-7; format: cell-based, human; settings: Homo sapiens, MCF7; MCF-7, 48 h, sulforhodamine B; read-out: Cytotoxicity (GI50) breast MCF-7
VALUE KIND: GI50

[
  {
    "COMPOUND": "COc1cc2c3c(n(CCCN4CCOCC4)c(=O)c2cc1O)-c1cc2c(cc1C3=O)OCO2 [Compound 9]",
    "VALUE KIND": "GI50",
    "VALUE OBSERVED": "< 10 nM"
  },
  {
    "COMPOUND": "COc1cc2c3c(n(CCCN4CCOCC4)c(=O)c2cc1OC(=O)c1cccnc1)-c1cc2c(cc1C3=O)OCO2 [Compound 19]",
    "VALUE KIND": "GI50",
    "VALUE OBSERVED": "< 10 nM"
  },
  {
    "COMPOUND": "COc1cc2c(=O)n(CCCN3CCOCC3)c3c(c2cc1O)C(=O)c1cc2c(cc1-3)OCO2 [Compound 8]",
    "VALUE KIND": "GI50",
    "VALUE OBSERVED": "144 nM"
  },
  {
    "COMPOUND": "COc1cc2c3c(n(CCCN4CCOCC4)c(=O)c2cc1OC(=O)N(C)C)-c1cc2c(cc1C3=O)OCO2 [Compound 15]",
    "VALUE KIND": "GI50",
    "VALUE OBSERVED": "< 10 nM"
  },
  {
    "COMPOUND": "COc1cc2c(=O)n(CCCN3CCOCC3)c3c(c2cc1OC(=O)c1cccnc1)C(=O)c1cc2c(cc1-3)OCO2 [Compound 14]",
    "VALUE KIND": "GI50",
    "VALUE OBSERVED": "< 10 nM"
  },
  {
    "COMPOUND": "COc1cc2c(=O)n(CCCN3CCOCC3)c3c(c2cc1OC(=O)N(C)C)C(=O)c1cc2c(cc1-3)OCO2 [Compound 10]",
    "VALUE KIND": "GI50",
    "VALUE OBSERVED": "22 nM"
  }
]

* * *

System: SF-539
Assay: NCI60 antiproliferative screen, CNS SF-539
Type: cell-based, human
Settings: SF-539, 48 h, sulforhodamine B; read-out: Cytotoxicity (GI50) CNS SF-539
Experimental: All of the indenoisoquinolines were tested for antiproliferative activity in the National Cancer Institute's 60 cell line screen (NCI60). The cells were incubated with the tested compounds at 100, 10, 1, 0.1, and 0.01 μM concentrations for 48 h before treatment with sulforhodamine B dye. Optical densities were recorded, and their ratios relative to that of the control were plotted as percentage growth against the log 10 of the tested compound concentrations. […]

[
  {
    "COMPOUND": "COC(=O)CCC(=O)Oc1cc2c3c(n(CCCN4CCOCC4)c(=O)c2cc1OC)-c1cc2c(cc1C3=O)OCO2 [Compound 12]",
    "GI50": "< 0.01 µM"
  },
  {
    "COMPOUND": "COC(=O)CCC(=O)Oc1cc2c(=O)n(CCCN3CCOCC3)c3c(c2cc1OC)C(=O)c1cc2c(cc1-3)OCO2 [Compound 17]",
    "GI50": "< 0.01 µM"
  },
  {
    "COMPOUND": "COc1cc2c(=O)n(CCCN3CCOCC3)c3c(c2cc1OC(C)=O)C(=O)c1cc2c(cc1-3)OCO2 [Compound 11]",
    "GI50": "< 0.01 µM"
  },
  {
    "COMPOUND": "COc1cc2c3c(n(CCCN4CCOCC4)c(=O)c2cc1OC(=O)c1ccccc1)-c1cc2c(cc1C3=O)OCO2 [Compound 18]",
    "GI50": "0.135 µM"
  },
  {
    "COMPOUND": "COc1cc2c3c(n(CCCN4CCOCC4)c(=O)c2cc1OC(C)=O)-c1cc2c(cc1C3=O)OCO2 [Compound 16]",
    "GI50": "< 0.01 µM"
  },
  {
    "COMPOUND": "COc1cc2c(=O)n(CCCN3CCOCC3)c3c(c2cc1OC(=O)c1ccccc1)C(=O)c1cc2c(cc1-3)OCO2 [Compound 13]",
    "GI50": "0.037 µM"
  },
  {
    "COMPOUND": "COc1cc2c3c(n(CCCN4CCOCC4)c(=O)c2cc1OS(=O)(=O)O)-c1cc2c(cc1C3=O)OCO2 [Compound 20]",
    "GI50": "0.263 µM"
  }
]

* * *

System: OVCAR-3
Experiment: NCI60 antiproliferative screen, ovarian OVCAR-3
Assay type: cell-based, human
Conditions: OVCAR-3, 48 h, sulforhodamine B; read-out: Cytotoxicity (GI50) Ovarian OVCAR-3
Procedure: All of the indenoisoquinolines were tested for antiproliferative activity in the National Cancer Institute's 60 cell line screen (NCI60). The cells were incubated with the tested compounds at 100, 10, 1, 0.1, and 0.01 μM concentrations for 48 h before treatment with sulforhodamine B dye. Optical densities were recorded, and their ratios relative to that of the control were plotted as percentage growth against the log 10 of the tested compound concentrations. […]
VALUE KIND: GI50 (nM)

[
  {
    "SMILES ENTRY": "COc1cc2c(=O)n(CCCN3CCOCC3)c3c(c2cc1OC(C)=O)C(=O)c1cc2c(cc1-3)OCO2",
    "MEASUREMENT UNITS": "nM",
    "VALUE OBSERVED": 138
  },
  {
    "SMILES ENTRY": "COc1cc2c3c(n(CCCN4CCOCC4)c(=O)c2cc1OC(=O)c1ccccc1)-c1cc2c(cc1C3=O)OCO2",
    "MEASUREMENT UNITS": "nM",
    "VALUE OBSERVED": 30900
  },
  {
    "SMILES ENTRY": "COc1cc2c3c(n(CCCN4CCOCC4)c(=O)c2cc1OS(=O)(=O)O)-c1cc2c(cc1C3=O)OCO2",
    "MEASUREMENT UNITS": "nM",
    "VALUE OBSERVED": 1120
  },
  {
    "SMILES ENTRY": "COC(=O)CCC(=O)Oc1cc2c3c(n(CCCN4CCOCC4)c(=O)c2cc1OC)-c1cc2c(cc1C3=O)OCO2",
    "MEASUREMENT UNITS": "nM",
    "VALUE OBSERVED": 66
  },
  {
    "SMILES ENTRY": "COC(=O)CCC(=O)Oc1cc2c(=O)n(CCCN3CCOCC3)c3c(c2cc1OC)C(=O)c1cc2c(cc1-3)OCO2",
    "MEASUREMENT UNITS": "nM",
    "VALUE OBSERVED": 37
  },
  {
    "SMILES ENTRY": "COc1cc2c3c(n(CCCN4CCOCC4)c(=O)c2cc1OC(C)=O)-c1cc2c(cc1C3=O)OCO2",
    "MEASUREMENT UNITS": "nM",
    "VALUE OBSERVED": 269
  },
  {
    "SMILES ENTRY": "COc1cc2c(=O)n(CCCN3CCOCC3)c3c(c2cc1OC(=O)c1ccccc1)C(=O)c1cc2c(cc1-3)OCO2",
    "MEASUREMENT UNITS": "nM",
    "VALUE OBSERVED": 4570
  }
]
